Tested target: Aurora kinase A (Homo sapiens, UniProt O14965)
Sequence (O14965 whole entry): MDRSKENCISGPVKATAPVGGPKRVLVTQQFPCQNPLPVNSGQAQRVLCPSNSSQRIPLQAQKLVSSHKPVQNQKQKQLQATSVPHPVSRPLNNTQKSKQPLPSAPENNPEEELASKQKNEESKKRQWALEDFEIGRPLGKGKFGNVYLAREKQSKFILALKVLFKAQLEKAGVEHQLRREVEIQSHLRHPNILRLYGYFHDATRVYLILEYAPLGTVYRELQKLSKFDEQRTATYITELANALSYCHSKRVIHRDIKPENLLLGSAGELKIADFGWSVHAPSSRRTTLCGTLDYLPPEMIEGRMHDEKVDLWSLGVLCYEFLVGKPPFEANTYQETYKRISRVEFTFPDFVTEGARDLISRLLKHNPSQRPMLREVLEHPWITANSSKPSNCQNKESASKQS
Measured pIC50, listed per entry for reference.
pIC50 is a log-scale quantity: -log10 of the concentration expressed in molar.

>  <Smiles>
CCn1cc(-c2ccnc3[nH]c(-c4ccc(NC(C)=O)cc4)cc23)c(-c2ccc(NC(=O)Nc3ccccc3)cc2)n1

>  <pIC50>
7.21

$$$$
>  <Smiles>
CCn1cc(-c2ccnc3[nH]c(C(=O)NCCN4CCN(C)CC4)cc23)c(-c2ccc(NC(=O)Nc3ccccc3)cc2)n1

>  <pIC50>
6.69

$$$$
>  <Smiles>
CCn1cc(-c2ccnc3[nH]c(-c4cccc(CN5CCOCC5)c4)cc23)c(-c2ccc(NC(=O)N(C)C)cc2)n1

>  <pIC50>
6.31

$$$$
>  <Smiles>
CCn1cc(-c2ccnc3[nH]ccc23)c(-c2ccc(NC(=O)Nc3ccccc3)cc2)n1

>  <pIC50>
6.20

$$$$
>  <Smiles>
CCNC(=O)Nc1ccc(-c2nn(CC)cc2-c2ccnc3[nH]c(-c4cccc(CN5CCCC5)c4)cc23)cc1

>  <pIC50>
7.24

$$$$
>  <Smiles>
CCNC(=O)Nc1ccc(-c2nn(CC)cc2-c2ccnc3[nH]c(-c4ccc(CN5CCCC5)cc4)cc23)cc1

>  <pIC50>
7.38

$$$$

Now for a further molecule.
Req: Param readout = pIC50; param system = Aurora kinase A (Homo sapiens, UniProt O14965); param query = "CCn1cc(-c2ccnc3[nH]c(CNCCCN4CCN(C)CC4)cc23)c(-c2ccc(NC(=O)Nc3ccccc3)cc2)n1" ; response: value
Resp: 5.29

* * *

Assay comment: Half life in iv dosed rat
Assay type: ADME, organism-based
Condition label: in vivo
Reported endpoint: half-life (min)
Note: unit min is implicit; provide only the numeric part.

Req: What measured half-life goes with "CCn1cc(-c2ccnc3[nH]ccc23)c(-c2ccc(NC(=O)Nc3ccccc3)cc2)n1" ?
Resp: 12

* * *

Tested target: Cytochrome P450 2D6 (Homo sapiens)
Sequence (P10635 whole entry): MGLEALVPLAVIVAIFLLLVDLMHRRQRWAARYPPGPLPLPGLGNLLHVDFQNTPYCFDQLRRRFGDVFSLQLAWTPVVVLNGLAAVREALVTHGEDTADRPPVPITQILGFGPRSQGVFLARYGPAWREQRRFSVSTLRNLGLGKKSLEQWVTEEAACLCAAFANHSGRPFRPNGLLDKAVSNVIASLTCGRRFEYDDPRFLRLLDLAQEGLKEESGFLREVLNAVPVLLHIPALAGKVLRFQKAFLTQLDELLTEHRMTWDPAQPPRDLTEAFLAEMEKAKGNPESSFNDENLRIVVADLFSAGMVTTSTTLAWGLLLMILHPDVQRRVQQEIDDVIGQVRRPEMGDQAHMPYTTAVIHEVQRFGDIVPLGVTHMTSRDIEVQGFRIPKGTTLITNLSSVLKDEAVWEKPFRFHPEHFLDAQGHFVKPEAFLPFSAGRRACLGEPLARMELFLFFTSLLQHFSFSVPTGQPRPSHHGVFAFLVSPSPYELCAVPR
Assay comment: Inhibition of CYP2D6 in human liver microsomes using bufuralol as substrate
Assay type: ADME, Microsome
Reported endpoint: IC50 (µM)
Number in µM, nothing else.

Req: Form field: reported IC50 of CCn1cc(-c2ccnc3[nH]c(-c4cccc(CN(C)C)c4)cc23)c(-c2ccc(NC(=O)N(C)C)cc2)n1 [GSK-1070916]
Resp: 12

* * *

Tested target: Aurora kinase C (Homo sapiens, UniProt Q9UQB9)
Sequence (Q9UQB9 whole entry): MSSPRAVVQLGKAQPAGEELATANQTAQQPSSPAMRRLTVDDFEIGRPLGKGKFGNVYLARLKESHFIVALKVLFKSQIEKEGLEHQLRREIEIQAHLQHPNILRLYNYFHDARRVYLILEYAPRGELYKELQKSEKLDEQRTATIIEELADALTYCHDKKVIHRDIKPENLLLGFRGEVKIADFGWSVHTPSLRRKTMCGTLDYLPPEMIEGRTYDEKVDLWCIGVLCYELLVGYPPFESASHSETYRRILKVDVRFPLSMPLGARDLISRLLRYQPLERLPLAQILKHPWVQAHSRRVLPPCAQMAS
Assay comment: Competitive inhibition of Aurora C ATP binding site
Reported endpoint: Ki (nM)
Report as a plain number; the unit nM is understood.

Req: Any idea what Ki was measured for "CCn1cc(-c2ccnc3[nH]c(-c4cccc(CN(C)C)c4)cc23)c(-c2ccc(NC(=O)N(C)C)cc2)n1" ?
Resp: 1.5
